System: SR leukemia
Measurement Notes: NCI tumour cell line growth inhibition, 48 h
Property: GI50

Known GI50 results, listed for orientation:
- Compound: "CN(C)CCNC(=O)Nc1ccc(N(C)c2ccnc(Nc3ccc(CS(C)(=O)=O)cc3)n2)cc1"
  GI50: "14800 nM"
- Compound: "CCN(CC)CCCC(Nc1c2ccc(Cl)cc2nc2ccc(OC)cc12)c1ccc(Cl)cc1 (stereo unspecified)"
  GI50: "217 nM"
- Compound: "Nc1ncnc2c1c(-c1ccc(Oc3ccccc3)cc1)nn2CC1SSCC1O (stereo unspecified)"
  GI50: "251 nM"
- Compound: "Cc1ccccc1Nc1cc(O)c2c(=O)cc(-c3ccccc3)oc2c1"
  GI50: "395 nM"

Exercise: I have this compound here, "CCOC(=O)c1cn(C)c2c(OC)c3ccccc3c(OC)c2c1=O" , and I need its recorded GI50.
Key: 28500 nM

Exercise: And what about the compound OCC1OC(OC2(CO)OC(CO)C(O)C2O)C(O)C(O)C1O (stereo unspecified) ?
Key: > 100000 nM

Exercise: And what about the compound CN(C)C1C(=O)C(C(N)=O)=C(O)C2(O)C(=O)C3=C(O)c4c(O)cccc4C(C)(O)C3CC12.[Cl][Sb]([Cl])[Cl] (stereo unspecified) ?
Key: 2880 nM

Exercise: And what about the compound "O=C(Nc1ccc(-n2cc(-c3ccncc3)c(-c3ccc(O)c(Cl)c3)n2)cc1)Nc1cc(C(F)(F)F)cc(C(F)(F)F)c1" ?
Key: 6060 nM

====

System: A549 NSCLC
Measurement Notes: NCI tumour cell line growth inhibition, 48 h; in the data active = GI50 below about 0.43 µM; inactive = the rest
Please answer using one outcome listed in true for active, false for inactive

Example results:
- Structure: "CC[n+]1c(-c2ccccc2)c2cc(N)ccc2c2ccc(N)cc21"
  Label Class: "false"
- Structure: "O=C1c2ccccc2-c2c1c1ccccc1c(=O)n2CCCNCCNCCCn1c2c(c3ccccc3c1=O)C(=O)c1ccccc1-2"
  Label Class: "true"

Pending molecule:
Exercise: Assay outcome for "Cn1cc(-c2ccc3ncc(-c4ccc(CC(=O)Nc5cc(C(C)(C)C)nn5C)cc4)cc3c2)cn1" : what was it?
Key: false

====

Tested on: SF-268 CNS
Measurement Notes: NCI tumour cell line growth inhibition, 48 h
Property: TGI

Known TGI results, listed for orientation:
- Molecule: "CC(=O)Oc1cc2c(cc1OCC(F)(F)F)[C@H]1CC[C@]3(C)[C@@H](OC(C)=O)CC[C@H]3[C@@H]1CC2=O"
  TGI: "> 77.4 µM"
- Molecule: "[C-]#[O+].[Cl][Sn]([Cl])[Cl].[Cl][Sn]([Cl])[Cl].[Pt].c1cnc2c(c1)ccc1cccnc12"
  TGI: "> 79 µM"
- Molecule: "COc1cccc(/C=N/[N-]C(N)=O)c1[O-].[Cu+2].[OH3+]"
  TGI: "32.9 µM"
- Molecule: "CC(=O)C1(C(=O)C(=[N+]=[N-])S(=O)(=O)c2ccccc2)CC1"
  TGI: "> 100 µM"
- Molecule: "COc1ccccc1N=Nc1c(O)ccc2ccccc12"
  TGI: "> 100 µM"
- Molecule: "O=c1[nH]ncc2[nH]c3c(c12)CCc1ccccc1-3"
  TGI: "> 100 µM"
- Molecule: "NC1CCC2(O)c3ccccc3C2C1 (stereo not given)"
  TGI: "> 100 µM"
- Molecule: "Cc1nc2sccn2c1C(=O)NNC(N)=S"
  TGI: "> 100 µM"
- Molecule: "C#Cc1cccc(NC(=O)/C=C\\C(=O)O)c1"
  TGI: "> 100 µM"

Then there is this molecule:
Exercise: I have this molecule here, "O=C(Nc1ccc(-n2cc(-c3ccncc3)c(-c3ccc(O)c(Cl)c3)n2)cc1)Nc1cc(C(F)(F)F)cc(C(F)(F)F)c1" , and I need its recorded TGI.
Key: 16 µM
